Each recorded value in this set is attributed to patent US20240409566A1.

# EXPERIMENT: Plasma stability assay, human plasma
# Type: in vitro ADME
# CONDITION_CONTEXT: human, 30 min, 10 µM
QUANTITY_NAME: Prodrug (%)
Give just the numeric value; % need not be written.

Look over these answered cases.
CCCC(=O)O[C@H]1CC[C@@]2(c3ccc(OC)c(OC)c3)CCN(C)[C@H]2C1 :: 87.33
CCOC(=O)O[C@@H]1CC[C@@]2(c3ccc(OC)c(OC)c3)CCN(C)[C@H]2C1 :: 91.8
CCCCC(=O)O[C@H]1CC[C@@]2(c3ccc(OC)c(OC)c3)CCN(C)[C@H]2C1 :: 89.85

May I ask what Prodrug (%) has been recorded for CCCCC(=O)OC1CC[C@@]2(c3ccc(OC)c(OC)c3)CCN(C)[C@H]2C1 (stereo in doubt) ?
90.7

###

Recorded Prodrug (%) by entry
# EXPERIMENT: Plasma stability assay, rat plasma
# Type: in vitro ADME
# CONDITION_CONTEXT: rat, 120 min, 10 µM

Look over these answered cases.
CCCC(=O)OCO[C@@H]1CC[C@@]2(c3ccc(OC)c(OC)c3)CCN(C)[C@H]2C1 :: 0.1%
CCCCC(=O)OC1CC[C@@]2(c3ccc(OC)c(OC)c3)CCN(C)[C@H]2C1 (stereo in doubt) :: 0.1%
CCCC(=O)OC1CC[C@@]2(c3ccc(OC)c(OC)c3)CCN(C)[C@H]2C1 (stereo in doubt) :: 0.0%
COc1ccc([C@@]23CC[C@@H](OC(=O)C(C)(C)C)C[C@@H]2N(C)CC3)cc1OC :: 0.6%

May I ask what Prodrug (%) has been recorded for `CCCCC(=O)O[C@H]1CC[C@@]2(c3ccc(OC)c(OC)c3)CCN(C)[C@H]2C1` ?
0.0%

May I ask what Prodrug (%) has been recorded for `COc1ccc([C@@]23CC[C@H](OC(=O)N(C)C)C[C@@H]2N(C)CC3)cc1OC` ?
99.4%

May I ask what Prodrug (%) has been recorded for `COc1ccc([C@@]23CC[C@@H](OC(=O)C(C)C)C[C@@H]2N(C)CC3)cc1OC` ?
0.0%

###

Recorded Prodrug (%) by entry
# EXPERIMENT: Plasma stability assay, rat plasma
# Format: in vitro ADME
# CONDITION_CONTEXT: rat, 240 min, 10 µM
Give just the numeric value; % need not be written.

COc1ccc([C@@]23CC[C@@H](OCOC(=O)C(C)(C)C)C[C@@H]2N(C)CC3)cc1OC :: 0.0
CCCCC(=O)OC1CC[C@@]2(c3ccc(OC)c(OC)c3)CCN(C)[C@H]2C1 (stereo in doubt) :: 0.0

// below: Prodrug (%) requested for another molecule
May I ask what Prodrug (%) has been recorded for `COc1ccc([C@@]23CC[C@@H](OC(=O)C(C)(C)C)C[C@@H]2N(C)CC3)cc1OC` ?
0.0

###

Recorded Prodrug (%) by entry
# EXPERIMENT: Plasma stability assay, human plasma
# Format: in vitro ADME
# CONDITION_CONTEXT: human, 120 min, 10 µM
Give just the numeric value; % need not be written.

Look over these answered cases.
COc1ccc([C@@]23CC[C@@H](OCOC(=O)C(C)(C)C)C[C@@H]2N(C)CC3)cc1OC [Compound 207] :: 0.7
CCCC(=O)OC1CC[C@@]2(c3ccc(OC)c(OC)c3)CCN(C)[C@H]2C1 (stereo in doubt) [Compound 206] :: 79.1

May I ask what Prodrug (%) has been recorded for CCCCC(=O)OC1CC[C@@]2(c3ccc(OC)c(OC)c3)CCN(C)[C@H]2C1 (stereo in doubt) [Compound 205] ?
80.3
